Where do these numbers come from? They come from patent US20130101549A1.

- target.entity: T1, murine HER2 on CHO cells (mouse, UniProt P70424 23-1256)
- T1 construct: whole, on cells; also called mHER2/ErbB2; murine Her2-CHO
- method.summary: FACS on CHO cells expressing murine HER2
readout.kind: binding result

Query block: Given the entry BIIB66C01 Fab (Fab, V domains shown, Soluble human Fab from a naive phagemid Fab library) VH: EVQLLESGGGLVQPGGSLRLSCAASGFTFSWYSMSWVRQAPGKGLEWVSSISSSGGPTHYADSVKGRFTISRDNSKNTLYLQMNSLRAEDTAVYYCARDSSYSGTSWGQGTLVTVSS VL: QYELTQPPSVSGTPGQRVTISCSGSSSNIGSEYVYWFQQLPGTAPRLLIYRNDQRPSGVPDRFSGSKSGTSASLAISGLRSEDETDYYCTTWDDSLSGPVFGGGTKLTVL , report its measured binding result.
Result block: no binding

Query block: Given the entry BIIB65H09 Fab (Fab, V domains shown, Soluble human Fab from a naive phagemid Fab library) VH: EVQLLESGGGLVQPGGSLRLSCAASGFTFSWYSMWWVRQAPGKGLEWVSSIVSSGGQTRYADSVKGRFTISRDNSKNTLYLQMNSLRAEDTAVYYCARVKGYYYYIDVWGKGTTVTVSS VL: DIQMTQSPGTLSLSPGERATLSCRASQSVDSSYLSWYQQKPGQAPRLLIYGASTRATGIPARFSGSGSGTDFTLTVSRLEPEDFAVYYCQQHGYSSRTFGQGTKVEIK , report its measured binding result.
Result block: no binding

Query block: Given the entry BIIB67F11 Fab (Fab, V domains shown, Soluble human Fab from a naive phagemid Fab library) VH: EVQLLESGGGLVQPGGSLRLSCAASGFTFSNYYMMWVRQAPGKGLEWVSVIGSSGGMTNYADSVKGRFTISRDNSKNTLYLQMNSLRAEDTAVYYCARGYPTGYYDSSGWVYSYYGIDVWGQGTTVTVSS VL: DIQMTQSPSSLSASIGDRVTITCQASQDTDNRLHWYQQKSGRAPKLLIYDAVNLKRGVPSRFRGSGSGTNFILTITNLQPEDMATYFCQHSDGLSLAFGGGTKLEIK , report its measured binding result.
Result block: no binding
